Test system: HCT116 p53–/–
experiment-summary: MTS cytotoxicity assay, 72 h, HCT116 p53–/–
Assay type: cell-based
assay-context: Homo sapiens, HCT-116, 72 h, full Table S1
Procedure: Based on the preliminary results and tests of a larger library of known triterpenoids, a small set of 2-substituted lupane and 18α-oleanane derivatives was designed and synthesized. As the first step, the cytotoxic activity of the synthesized derivatives was assessed using an MTS assay following 72 h of treatment (Table 1). Selected cell lines A549 (lung adenocarcinoma) and DU-145 (prostate cancer) are both dependent on Hh signaling. […]
pIC50: −log10 of the molar value.
Reported pIC50 values are given for each entry in this list.

# count of solved cases: 5
C=C(C)[C@@H]1CC[C@]2(C(=O)OCc3ccccc3)CC[C@]3(C)C(CCC4[C@@]5(C)C=C(c6ccc7[nH]ccc7c6)C(=O)C(C)(C)C5CC[C@]43C)C12 (stereo partly drawn) [Compound 10m]
< 4.30
CC1(C)C(=O)C(c2ccsc2)=C[C@@]2(C)C1CC[C@]1(C)C2CCC2C3[C@H]4OC[C@@]3(CCC4(C)C)CC[C@]21C (stereo partly drawn) [Compound 4d]
< 4.30
C=C(C)[C@@H]1CC[C@]2(C(=O)O)CC[C@]3(C)C(CCC4[C@@]5(C)C=C(c6cccnc6)C(=O)C(C)(C)C5CC[C@]43C)C12 (stereo partly drawn) [Compound 11g]
4.40
C=C(C)[C@@H]1CC[C@]2(C(=O)OCc3ccccc3)CC[C@]3(C)C(CCC4[C@@]5(C)C=C(c6ccoc6)C(=O)C(C)(C)C5CC[C@]43C)C12 (stereo partly drawn) [Compound 10b]
< 4.30
C=C(C)[C@@H]1CC[C@]2(C(=O)O)CC[C@]3(C)C(CCC4[C@@]5(C)C=C(c6ccc7cn[nH]c7c6)C(=O)C(C)(C)C5CC[C@]43C)C12 (stereo partly drawn) [Compound 11n]
4.77

Proceeding to the next compound to report its pIC50.
(Q) Would you mind telling me what pIC50 value was observed for CC1(C)C(=O)C(c2ccoc2)=C[C@@]2(C)C1CC[C@]1(C)C2CCC2C3[C@H]4OC[C@@]3(CCC4(C)C)CC[C@]21C (stereo partly drawn) [Compound 4b] ?
(A) < 4.30

----------
Tested on: DU-145 (prostate cancer)
experiment-summary: MTS cytotoxicity assay, 72 h, DU-145
Type: cell-based, human
assay-context: Homo sapiens, DU-145, 72 h, Table 1
pIC50: −log10 of the molar value.
I would appreciate it if you labelled entries fulfilled when pIC50 is 5 or higher, otherwise not fulfilled.

Record excerpt, results attached:
CC1(C)C(=O)C(c2cncnc2)=C[C@@]2(C)C1CC[C@]1(C)C2CCC2C3[C@H]4OC[C@@]3(CCC4(C)C)CC[C@]21C (stereo partly drawn)
not fulfilled
C=C(C)[C@@H]1CC[C@]2(C(=O)O)CC[C@]3(C)C(CCC4[C@@]5(C)C=C(c6cncnc6)C(=O)C(C)(C)C5CC[C@]43C)C12 (stereo partly drawn) [Compound 11i]
not fulfilled
C=C(C)[C@@H]1CC[C@]2(C(=O)O)CC[C@]3(C)C(CCC4[C@@]5(C)C=C(c6ccoc6)C(=O)C(C)(C)C5CC[C@]43C)C12 (stereo partly drawn) [Compound 11b]
fulfilled

Consider the record given below.
(Q) Kindly determine if pIC50 recorded for CC1(C)C(=O)C(c2ccncc2)=C[C@@]2(C)C1CC[C@]1(C)C2CCC2C3[C@H]4OC[C@@]3(CCC4(C)C)CC[C@]21C (stereo partly drawn) is above or exactly 5.
(A) not fulfilled

----------
Test system: U2OS
experiment-summary: MTS cytotoxicity assay, 72 h, U2OS
Type: cell-based
assay-context: Homo sapiens, Table 1
metric: pIC50
Keep in mind that pIC50 stands for -log10 of concentration in molar terms.

C=C(C)[C@@H]1CC[C@]2(C(=O)O)CC[C@]3(C)C(CCC4[C@@]5(C)C=C(c6cncc7ccccc67)C(=O)C(C)(C)C5CC[C@]43C)C12 (stereo partly drawn) [Compound 11l]
4.60
C=C(C)[C@@H]1CC[C@]2(C(=O)O)CC[C@]3(C)C(CCC4[C@@]5(C)C=C(c6ccncc6)C(=O)C(C)(C)C5CC[C@]43C)C12 (stereo partly drawn) [Compound 11h]
4.55

(Q) Lab note: need pIC50 for C=C(C)[C@@H]1CC[C@]2(C(=O)O)CC[C@]3(C)C(CCC4[C@@]5(C)C=C(c6ccc7cn[nH]c7c6)C(=O)C(C)(C)C5CC[C@]43C)C12 (stereo partly drawn) [Compound 11n] on U2OS, anyone have it?
(A) 4.68

----------
Reported IC50 values are given for each entry in this list.
System: MRC-5 lung fibroblasts
experiment-summary: MTS cytotoxicity assay, 72 h, MRC-5 fibroblasts
Format: cell-based, human
assay-context: Homo sapiens, MRC5, 72 h, normal fibroblasts, Table 1

(Q) Would you mind telling me what IC50 value was observed for C=C(C)[C@@H]1CC[C@]2(C(=O)O)CC[C@]3(C)C(CCC4[C@@]5(C)C=C(c6cncnc6)C(=O)C(C)(C)C5CC[C@]43C)C12 (stereo partly drawn) [Compound 11i] ?
(A) > 50 µM

(Q) Would you mind telling me what IC50 value was observed for C=C(C)[C@@H]1CC[C@]2(C(=O)O)CC[C@]3(C)C(CCC4[C@@]5(C)C=C(c6ccncc6)C(=O)C(C)(C)C5CC[C@]43C)C12 (stereo partly drawn) [Compound 11h] ?
(A) > 50 µM

(Q) Would you mind telling me what IC50 value was observed for C=C(C)[C@@H]1CC[C@]2(C(=O)O)CC[C@]3(C)C(CCC4[C@@]5(C)C=C(c6ccco6)C(=O)C(C)(C)C5CC[C@]43C)C12 (stereo partly drawn) [Compound 11a] ?
(A) 27 µM

----------
Tested on: DU-145 (prostate cancer)
experiment-summary: MTS cytotoxicity assay, 72 h, DU-145
Assay type: cell-based, human
assay-context: Homo sapiens, DU-145, 72 h, full Table S1
Description: Based on the preliminary results and tests of a larger library of known triterpenoids, a small set of 2-substituted lupane and 18α-oleanane derivatives was designed and synthesized. As the first step, the cytotoxic activity of the synthesized derivatives was assessed using an MTS assay following 72 h of treatment (Table 1). Selected cell lines A549 (lung adenocarcinoma) and DU-145 (prostate cancer) are both dependent on Hh signaling. […]
metric: IC50

# count of solved cases: 5
CC1(C)C(=O)C(c2cc3ccccc3s2)=C[C@@]2(C)C1CC[C@]1(C)C2CCC2C3[C@H]4OC[C@@]3(CCC4(C)C)CC[C@]21C (stereo partly drawn)
> 50 µM
CC1(C)C(=O)C(c2ccc3cn[nH]c3c2)=C[C@@]2(C)C1CC[C@]1(C)C2CCC2C3[C@H]4OC[C@@]3(CCC4(C)C)CC[C@]21C (stereo partly drawn)
23.9 µM
C=C(C)[C@@H]1CC[C@]2(C(=O)OCc3ccccc3)CC[C@]3(C)C(CCC4[C@@]5(C)C=C(c6ccoc6)C(=O)C(C)(C)C5CC[C@]43C)C12 (stereo partly drawn) [Compound 10b]
> 50 µM
C=C(C)[C@@H]1CC[C@]2(C(=O)O)CC[C@]3(C)C(CCC4[C@@]5(C)C=C(c6cccnc6)C(=O)C(C)(C)C5CC[C@]43C)C12 (stereo partly drawn) [Compound 11g]
11.1 µM
CC1(C)C(=O)C(c2ccco2)=C[C@@]2(C)C1CC[C@]1(C)C2CCC2C3[C@H]4OC[C@@]3(CCC4(C)C)CC[C@]21C (stereo partly drawn)
> 50 µM

(Q) Would you mind telling me what IC50 value was observed for C=C(C)[C@@H]1CC[C@]2(C(=O)OCc3ccccc3)CC[C@]3(C)C(CCC4[C@@]5(C)C=C(c6ccc(Cl)s6)C(=O)C(C)(C)C5CC[C@]43C)C12 (stereo partly drawn) [Compound 10e] ?
(A) > 50 µM

----------
Reported IC50 values are given for each entry in this list.
Test system: MRC-5 lung fibroblasts
experiment-summary: MTS cytotoxicity assay, 72 h, MRC-5 fibroblasts
Assay type: cell-based, human
assay-context: Homo sapiens, MRC5, 72 h, normal fibroblasts, Table 1

CC1(C)C(=O)C(c2cncc3ccccc23)=C[C@@]2(C)C1CC[C@]1(C)C2CCC2C3[C@H]4OC[C@@]3(CCC4(C)C)CC[C@]21C (stereo partly drawn) [Compound 4l]
> 50 µM

(Q) Would you mind telling me what IC50 value was observed for CC1(C)C(=O)C(c2ccncc2)=C[C@@]2(C)C1CC[C@]1(C)C2CCC2C3[C@H]4OC[C@@]3(CCC4(C)C)CC[C@]21C (stereo partly drawn) [Compound 4h] ?
(A) > 50 µM

(Q) Would you mind telling me what IC50 value was observed for C=C(C)[C@@H]1CC[C@]2(C(=O)O)CC[C@]3(C)C(CCC4[C@@]5(C)C=C(c6ccc7cn[nH]c7c6)C(=O)C(C)(C)C5CC[C@]43C)C12 (stereo partly drawn) [Compound 11n] ?
(A) 27 µM

----------
System: HCT116 p53–/–
experiment-summary: MTS cytotoxicity assay, 72 h, HCT116 p53–/–
Format: cell-based
assay-context: Homo sapiens, HCT-116, 72 h, full Table S1
metric: IC50

# count of solved cases: 4
C=C(C)[C@@H]1CC[C@]2(C(=O)OCc3ccccc3)CC[C@]3(C)C(CCC4[C@@]5(C)C=C(c6ccc(Cl)s6)C(=O)C(C)(C)C5CC[C@]43C)C12 (some centres unmarked) [Compound 10e]
> 50 µM
C=C(C)[C@@H]1CC[C@]2(C(=O)OCc3ccccc3)CC[C@]3(C)C(CCC4[C@@]5(C)C=C(c6cccs6)C(=O)C(C)(C)C5CC[C@]43C)C12 (some centres unmarked) [Compound 10c]
> 50 µM
C=C(C)[C@@H]1CC[C@]2(C(=O)OCc3ccccc3)CC[C@]3(C)C(CCC4[C@@]5(C)C=C(c6ccncc6)C(=O)C(C)(C)C5CC[C@]43C)C12 (some centres unmarked) [Compound 10h]
> 50 µM
C=C(C)[C@@H]1CC[C@]2(C(=O)O)CC[C@]3(C)C(CCC4[C@@]5(C)C=C(c6cncc7ccccc67)C(=O)C(C)(C)C5CC[C@]43C)C12 (some centres unmarked) [Compound 11l]
30.8 µM

(Q) Would you mind telling me what IC50 value was observed for CC1(C)C(=O)C(c2cc3ccccc3s2)=C[C@@]2(C)C1CC[C@]1(C)C2CCC2C3[C@H]4OC[C@@]3(CCC4(C)C)CC[C@]21C (some centres unmarked) ?
(A) > 50 µM
